system: Caspase 3; assay: Caspase 3 detection assay in SJSA1 cells; format: cell-based; conditions: 0.3 μM, SJSA1, 48 h, Caspase 3 activation over DMSO-treated cells
Bridge positions count the residues as written; N and C are the ends. Square brackets hold non-standard residues; d marks the D form. Peptide text beside a SMILES is read from it. R8 = C=CCCCCCC[C@@](C)(N)C(=O)O; Cba = N[C@@H](CC1CCC1)C(=O)O; S5 = C=CCCC[C@](C)(N)C(=O)O; Nle = CCCC[C@H](N)C(=O)O
caspase 0.3 μM values by entry
Hey, just send me the number, nothing else.

# molecule, test_value
rows = [
    ("CCCC[C@H](NC(=O)[C@H](C)NC(=O)[C@H](C)NC(=O)[C@]1(C)CCCC=CCCCCCC[C@@](C)(NC(=O)[C@H](Cc2ccccc2)NC(=O)[C@@H](NC(=O)[C@H](CC(C)C)NC(C)=O)[C@@H](C)O)C(=O)N[C@@H](C)C(=O)N[C@@H](Cc2ccc(O)cc2)C(=O)N[C@@H](Cc2c[nH]c3ccccc23)C(=O)N[C@@H](C)C(=O)N[C@@H](C)C(=O)N[C@@H](CC(C)C)C(=O)N1)C(=O)N[C@@H](C(N)=O)C(C)C (single isomer, unassigned)", 1),
]

Q: Suppose we examine the molecule CCCC[C@H](NC(=O)[C@H](C)NC(=O)[C@H](C)NC(=O)[C@]1(C)CCCC=CCCCCCC[C@@](C)(NC(=O)[C@H](Cc2ccccc2)NC(=O)[C@@H](NC(=O)[C@H](CCC(=O)O)NC(C)=O)[C@@H](C)O)C(=O)N[C@@H](C)C(=O)N[C@@H](Cc2ccc(O)cc2)C(=O)N[C@@H](Cc2c[nH]c3ccccc23)C(=O)N[C@@H](C)C(=O)N[C@@H](CCC(N)=O)C(=O)N[C@@H](CC2CCC2)C(=O)N1)C(=O)N[C@@H](C)C(N)=O [compound 237] (Ac-ETF[R8]AYWAQ[Cba][S5]AA[Nle]A-NH2; staple 4-11) ; what caspase 0.3 μM value has been reported?
A: 1

* * *

25 μM % Lysed cells (1 h LDH) values by entry
test system: SJSA-1 cells; assay: Cell lysis by peptidomimetic macrocycles (LDH release); format: cell-based; conditions: 25 μM, SJSA-1, 1 h
Bridge positions count the residues as written; N and C are the ends. Square brackets hold non-standard residues; d marks the D form. Peptide text beside a SMILES is read from it. Phe(4-COOH) = N[C@@H](Cc1ccc(C(=O)O)cc1)C(=O)O; R8 = C=CCCCCCC[C@@](C)(N)C(=O)O; Cba = N[C@@H](CC1CCC1)C(=O)O; S5 = C=CCCC[C@](C)(N)C(=O)O; Nle = CCCC[C@H](N)C(=O)O
Number in %, nothing else.

Look over these answered cases.
# compound, target_desc, unit_of_measurement, 25 μM % Lysed cells (1 h LDH)
records = [
    ("CC(C)CC[C@@H]1NC(=O)[C@H](CCC(N)=O)NC(=O)[C@H](C)NC(=O)[C@H](Cc2c[nH]c3ccccc23)NC(=O)[C@H](Cc2ccc(O)cc2)NC(=O)[C@H](CCC(=O)O)NC(=O)[C@](C)(NC(=O)[C@H](Cc2ccccc2)NC(=O)[C@@H](NC(=O)[C@H](CC(C)C)NC(=O)CN(C)C)[C@@H](C)O)CCCCCCC=CCCC[C@@](C)(C(=O)N[C@@H](CO)C(=O)N[C@@H](C)C(=O)N[C@@H](C)C(N)=O)NC1=O", "SJSA-1 cells", "%", 5),
    ("CC(=O)N[C@@H](CC(C)C)C(=O)N[C@H](C(=O)N[C@@H](Cc1ccccc1)C(=O)N[C@]1(C)CCCCCCC=CCCC[C@@](C)(C(=O)N[C@@H](CO)C(=O)N[C@H](C(=O)N[C@@H](C)C(N)=O)C(C)C)NC(=O)[C@H](CC(C)C)NC(=O)[C@H](CCC(N)=O)NC(=O)[C@H](C)NC(=O)[C@H](Cc2c[nH]c3ccccc23)NC(=O)[C@H](Cc2ccc(O)cc2)NC(=O)[C@H](C(C)C)NC1=O)[C@@H](C)O (single isomer, unassigned)", "SJSA-1 cells", "%", "−1"),
    ("CC(=O)N[C@@H](CC(C)C)C(=O)N[C@H](C(=O)N[C@@H](Cc1ccccc1)C(=O)N[C@]1(C)CCCCCCC=CCCC[C@@](C)(C(=O)N[C@@H](C)C(=O)N[C@@H](Cc2c[nH]cn2)C(=O)N[C@@H](Cc2ccccc2)C(=O)N[C@@H](C)C(N)=O)NC(=O)[C@H](CC(C)C)NC(=O)[C@H](CCC(N)=O)NC(=O)[C@H](C(C)C)NC(=O)[C@H](Cc2c[nH]c3ccccc23)NC(=O)[C@H](Cc2c[nH]cn2)NC(=O)[C@H](C)NC1=O)[C@@H](C)O [compound 190] (Ac-LTF[R8]AHWVQL[S5]AHFA-NH2; staple 4-11)", "SJSA-1 cells", "%", 0),
    ("CCCC[C@H](NC(=O)[C@H](C)NC(=O)[C@H](CO)NC(=O)[C@]1(C)CCCC=CCCCCCC[C@@](C)(NC(=O)[C@H](Cc2ccccc2)NC(=O)[C@@H](NC(=O)[C@H](CC(C)C)NC(C)=O)[C@@H](C)O)C(=O)N[C@@H](CCC(=O)O)C(=O)N[C@@H](Cc2ccc(C(=O)O)cc2)C(=O)N[C@@H](Cc2c[nH]c3ccccc23)C(=O)N[C@@H](C)C(=O)N[C@@H](CCC(N)=O)C(=O)N[C@@H](CC2CCC2)C(=O)N1)C(=O)N[C@@H](C)C(N)=O [compound 244] (Ac-LTF[R8]E[Phe(4-COOH)]WAQ[Cba][S5]SA[Nle]A-NH2; staple 4-11)", "SJSA-1 cells", "%", 0),
    ("CCCC[C@H](NC(=O)[C@H](C)NC(=O)[C@H](CCC(N)=O)NC(=O)[C@H](Cc1c[nH]cn1)NC(=O)[C@]1(C)CCCC=CCCCCCC[C@@](C)(NC(=O)[C@H](Cc2ccccc2)NC(C)=O)C(=O)N[C@@H](C)C(=O)N[C@@H](Cc2ccc(O)cc2)C(=O)N[C@@H](Cc2c[nH]c3ccccc23)C(=O)N[C@@H](CO)C(=O)N[C@@H](C)C(=O)N[C@@H](CC(C)C)C(=O)N1)C(N)=O [compound 39] (Ac-F[R8]AYWSAL[S5]HQA[Nle]-NH2; staple 2-9)", "SJSA-1 cells", "%", 0),
]

Q: Suppose we examine the compound CC(=O)N[C@@H](CC(C)C)C(=O)N[C@H](C(=O)N[C@@H](Cc1ccccc1)C(=O)N[C@]1(C)CCCCCCC=CCCC[C@@](C)(C(=O)N[C@@H](CO)C(=O)N[C@@H](C)C(=O)N[C@@H](C)C(=O)N[C@H](C)C(N)=O)NC(=O)[C@H](CC2CCC2)NC(=O)[C@H](CCC(N)=O)NC(=O)[C@H](C)NC(=O)[C@H](Cc2c[nH]c3ccccc23)NC(=O)[C@H](Cc2ccc(O)cc2)NC(=O)[C@H](CCC(=O)O)NC1=O)[C@@H](C)O (single isomer, unassigned) ; what 25 μM % Lysed cells (1 h LDH) value has been reported?
A: 0

Q: Suppose we examine the compound CSCC[C@H](NC(=O)[C@H](C)NC(=O)[C@H](C)NC(=O)[C@]1(C)CCCC=CCCCCCC[C@@](C)(NC(=O)[C@H](Cc2ccccc2)NC(=O)[C@@H](NC(=O)[C@H](CC(C)C)NC(C)=O)[C@@H](C)O)C(=O)N[C@@H](C)C(=O)N[C@@H](Cc2ccc(O)cc2)C(=O)N[C@@H](Cc2c[nH]c3ccccc23)C(=O)N[C@@H](C)C(=O)N[C@@H](C)C(=O)N[C@@H](CC(C)C)C(=O)N1)C(=O)N[C@H](C)C(N)=O [compound 72] (Ac-LTF[R8]AYWAAL[S5]AAM[dA]-NH2; staple 4-11) ; what 25 μM % Lysed cells (1 h LDH) value has been reported?
A: 0

Q: Suppose we examine the compound CC(=O)N[C@@H](CC(C)C)C(=O)N[C@H](C(=O)N[C@@H](Cc1ccccc1)C(=O)N[C@]1(C)CCCCCCC=CCCC[C@@](C)(C(=O)N[C@@H](C)C(=O)N[C@@H](C)C(=O)NC(C)(C)C(=O)N[C@@H](C)C(N)=O)NC(=O)[C@H](CC(C)C)NC(=O)[C@H](CCC(N)=O)NC(=O)[C@H](C)NC(=O)[C@H](Cc2c[nH]c3ccccc23)NC(=O)[C@H](Cc2ccc(O)cc2)NC(=O)[C@H](C)NC1=O)[C@@H](C)O (single isomer, unassigned) ; what 25 μM % Lysed cells (1 h LDH) value has been reported?
A: 5

Q: Suppose we examine the compound CC(=O)N[C@@H](CC(C)C)C(=O)N[C@H](C(=O)N[C@@H](Cc1ccc(F)c(F)c1)C(=O)N[C@]1(C)CCCCCCC=CCCC[C@@](C)(C(=O)N[C@@H](CO)C(=O)N[C@@H](C)C(=O)N[C@@H](C)C(N)=O)NC(=O)[C@H](CC(C)C)NC(=O)[C@H](CCC(N)=O)NC(=O)[C@H](C)NC(=O)[C@H](Cc2c[nH]c3ccccc23)NC(=O)[C@H](Cc2ccc(O)cc2)NC(=O)[C@H](CCC(=O)O)NC1=O)[C@@H](C)O (single isomer, unassigned) ; what 25 μM % Lysed cells (1 h LDH) value has been reported?
A: −2
